target: KDM2B^F-box-LRRs/SKP1 dimer (UniProt Q8NHM5 1059-1336; P63208 2-163); test: ITC
Sequence (Q8NHM5 1059-1336, chain 1 of 2): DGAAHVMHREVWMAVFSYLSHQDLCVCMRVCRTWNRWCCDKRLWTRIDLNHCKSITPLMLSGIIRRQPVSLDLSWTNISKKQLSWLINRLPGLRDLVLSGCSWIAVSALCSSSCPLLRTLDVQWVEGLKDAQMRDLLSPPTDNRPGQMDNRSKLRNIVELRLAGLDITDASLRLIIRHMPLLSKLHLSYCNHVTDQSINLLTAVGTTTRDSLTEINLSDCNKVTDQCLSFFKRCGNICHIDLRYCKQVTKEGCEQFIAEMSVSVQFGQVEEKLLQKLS
Sequence (P63208 2-163, chain 2 of 2): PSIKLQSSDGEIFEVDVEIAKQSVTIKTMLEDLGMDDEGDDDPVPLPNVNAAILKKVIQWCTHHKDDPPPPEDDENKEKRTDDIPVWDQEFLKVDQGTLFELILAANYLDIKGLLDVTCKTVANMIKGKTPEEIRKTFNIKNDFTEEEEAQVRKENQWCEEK
readout.label: Kd
Answers without a unit are incomplete; give the number and then its unit.

In: What Kd value was documented for this binder, BCOR^N1594/PCGF1^RAWUL dimer (complex) chain 1: ASGTWDFYGSSVCEPDDESGYDVLANPPGPEDQDDDDDAYSDVFEFEFSETPLLPCYNIQVSVAQGPRNWLLLSDVLKKLKMSSRIFRCNFPNVEIVTIAEAEFYRQVSASLLFSCSKDLEAFNPESKELLDLVEFTNEIQTLLGSSVEWLHPSDLASDNYW chain 2: LPFSSFDHSKAHYYRYDEQLNLCLERLSSGKDKNKSVLQNKYVRCSVRAEVRHLRRVLCHRLMLNPQHVQLLFDNEVLPDHMTMKQIWLSRWFGKPSPLLLQYSVK ?
Out: 250 nM
